read-out: Human Leukocyte Antigen - DR isotype (HLADR), HLA-DRA (gene 3122); assay: BSK_3C_HLADR: BioMAP Diversity Plus: 3C Assay for Human Leukocyte Antigen - DR isotype (HLADR) Biomarker Activity (AID 2283019); settings: primary human endothelial cells (HUVEC); actives raise or lower the signal
Active and inactive are the calls of the source. How the source made its calls: active means hit-call score of the fitted dose curve at least 0.9, where 1 is the maximum; inactive means score below 0.9.
Classes used: active, inactive

test_smiles=CN1CSC(=S)N(C)C1 label_class=active
test_smiles=O=C(O)COc1ccc(Cl)cc1Cl label_class=inactive
test_smiles=Cc1[nH]c(=O)n(C(C)(C)C)c(=O)c1Cl label_class=active

---

read-out: Human Leukocyte Antigen - DR isotype (HLADR), HLA-DRA (gene 3122); assay: BSK_CASM3C_HLADR: BioMAP Diversity Plus: CASM3C Assay for Human Leukocyte Antigen - DR isotype (HLADR) Biomarker Activity (AID 2283043); conditions: primary human coronary artery smooth muscle cells; actives raise or lower the signal;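 further: cell-surface HLA-DR protein level quantified by ELISA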
Calls of active or inactive are those of the source. How the source made its calls: active means hit-call score of the fitted dose curve at least 0.9, where 1 is the maximum; inactive means score below 0.9.
MEASURE_NAME: AC50

test_smiles=COc1cc(OC)nc(NC(=O)NS(=O)(=O)c2cc(NC=O)ccc2C(=O)N(C)C)n1 reading=inactive
test_smiles=O=C1c2ccccc2C(=O)N1SC(Cl)(Cl)Cl reading="28.7 µM (active)"
test_smiles=CCN(CC)C(=O)SCc1ccc(Cl)cc1 reading=inactive
test_smiles=COP(=S)(OC)Oc1ccc(SC)c(C)c1 reading=inactive
